- testProtocol: yeast AGP1-GFP level changes, GLN3 branch – cell-based, multiplex flow cytometry, S. cerevisiae, primary screen (AID 1887);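 also: AGP1-GFP fusion strain of S. cerevisiae within a five-strain barcoded multiplex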
- conditionInfo: 3 h, at 10 µM, stronger effect = higher value
Inconclusive results are not listed.
experimentalReadout: GFP response, % of DMSO (%)
Answers are plain numbers, in %.

Use these answered entries as a reference point.
molecule=Cc1nc(N)nc2c1CCCC2 experimentalreadout="GFP response, % of DMSO" measuredresult=94.9
molecule=CCCc1c(OCCCCc2nn[nH]n2)ccc(C(C)=O)c1O experimentalreadout="GFP response, % of DMSO" measuredresult=112
molecule=COc1ccccc1C(=O)Oc1ccc2c(c1)O/C(=C\c1ccncc1)C2=O experimentalreadout="GFP response, % of DMSO" measuredresult=105

For each listed entry, give its GFP response, % of DMSO.
1. Cc1cccc(C)c1NC(=O)C1CCCCN1C (stereo not drawn)
2. CC1(C)[C@@H](O)CC[C@]2(C)[C@H]3C(=O)C=C4[C@@H]5C[C@@](C)(C(=O)O)CC[C@]5(C)CC[C@@]4(C)[C@]3(C)CC[C@@H]12

[97, 91]

Please state, for each entry, its recorded GFP response, % of DMSO.
1. CC(=O)C1=C(O)C(=O)OC1c1ccc(C)cc1 (stereo not drawn)
2. Cc1cccc(Nc2ncccc2C(=O)O)c1C
3. COc1ccccc1NC(=O)N1CCc2[nH]c3ccc(Cl)cc3c2C1
4. NS(=O)(=O)c1cc2c(cc1Cl)NC(C1C[C@H]3C=C[C@@H]1C3)NS2(=O)=O (stereo partly drawn)
5. COc1ccc(Br)cc1C(=O)Nc1ccc(C(=O)O)cc1
6. C=C1C2(C(=O)Nc3ccc(SC(F)F)cc3)CCC(C2)C1(C)C (stereo not drawn)

106
108
94
106
68.8
100

====

- testProtocol: AML differentiation inducers, ER-HoxA9 marrow cells – cell-based, GFP/MAC1 double positive, flow cytometry, validation set, primary screen (AID 588685);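 also: compound exposure lasts four days before antibody staining and flow analysis; 0% = DMSO wells and 100% = 5 µM fulvestrant positive control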
- conditionInfo: stronger effect = higher value, normalized: vehicle 0, fulvestrant 100
Task for the reader: assign each of the following compounds its reported differentiation response.
One number for each entry, in %.

compound=CCc1cc(C(N)=S)ccn1 experimentalreadout="differentiation response" measuredresult=-8.96
compound=Cc1ccc(S(=O)(=O)N[C@@H](Cc2ccccc2)C(=O)CCl)cc1 experimentalreadout="differentiation response" measuredresult=-4
compound=Cc1ccccc1C(=O)NNc1ncnc2c1cnn2C experimentalreadout="differentiation response" measuredresult=6.83
compound="CCCCCCCC(=O)OCC(O)CO (centres undefined)" experimentalreadout="differentiation response" measuredresult=2.2

Your task in this section: give differentiation response for each listed record.
1. CO[C@@]1(NC(=O)Cc2cccs2)C(=O)N2C(C(=O)O)=C(COC(N)=O)CS[C@@H]21
2. Cc1cccc2c1CC(C)(C)N/C2=C\C(N)=O

[-7.37, -12.9]

State the recorded differentiation response for every item in the following list.
1. Cc1cc(OC(=O)CNC(=O)OC(C)(C)C)c2c(C)cc(=O)oc2c1
2. O=C(Cc1ccccc1[N+](=O)[O-])NCc1ccncc1
3. CCN(CC)CC#CCOC(=O)C(O)(c1ccccc1)C1CCCCC1 (centres undefined)
4. O=C(CCC(=O)NCCO)NCCO
5. CS(=O)(=O)Nc1ccc([N+](=O)[O-])cc1Oc1ccccc1
6. C[C@H]([C@@H](N)C(=O)N[C@@H](C(=O)O)[C@@H]1O[C@H](n2ccc(=O)[nH]c2=O)[C@@H](O)[C@H]1O)[C@@H](O)c1ccc(O)cn1
7. O=C(COc1ccc(F)cc1)OCCN1CCOCC1
8. Nc1ccc2nc(Cc3ccccc3)[nH]c2c1

3.88
-15.2
-1.64
-1.05
-8.93
4.09
-6.6
15.6

For every listed record, write down its differentiation response.
1. CC(N=C(NC#N)Nc1ccncc1)C(C)(C)C (centres undefined)
2. COc1cc(C(=S)N(C)C)ccc1O
3. N=c1nc(N2CCCCC2)cc(N)n1O
4. CCn1ccnc1CN(C)Cc1cn(-c2cccc(C)c2)nc1-c1cccc(F)c1
5. COc1cccc2c(=O)c(C/C=C(/C)Cl)c(C)[nH]c12
6. COc1cc(-c2nnc(-c3cccs3)o2)cc(OC)c1OC
7. CCCN(CCC)C(=O)C(CCC(=O)O)NC(=O)c1ccccc1 (centres undefined)
8. CC1(C)Cc2ccccc2-c2nc(-c3ccccc3)oc(=O)c21

1: -1.65; 2: 15.9; 3: 8.19; 4: -14.8; 5: -16.8; 6: -1.65; 7: 6.11; 8: -0.06

Kindly give each listed record's differentiation response.
1. NS(=O)(=O)c1cc(C2(O)NC(=O)c3ccccc32)ccc1Cl (centres undefined)
2. CC1Cc2ccccc2N1NC(=O)c1ccc(Cl)c(S(N)(=O)=O)c1 (centres undefined)

1. 4.09
2. 11.8

====

- measurementTarget: Beta-2 adrenergic receptor (Homo sapiens) (UniProt P07550)
- Sequence (P07550 whole entry, looked up): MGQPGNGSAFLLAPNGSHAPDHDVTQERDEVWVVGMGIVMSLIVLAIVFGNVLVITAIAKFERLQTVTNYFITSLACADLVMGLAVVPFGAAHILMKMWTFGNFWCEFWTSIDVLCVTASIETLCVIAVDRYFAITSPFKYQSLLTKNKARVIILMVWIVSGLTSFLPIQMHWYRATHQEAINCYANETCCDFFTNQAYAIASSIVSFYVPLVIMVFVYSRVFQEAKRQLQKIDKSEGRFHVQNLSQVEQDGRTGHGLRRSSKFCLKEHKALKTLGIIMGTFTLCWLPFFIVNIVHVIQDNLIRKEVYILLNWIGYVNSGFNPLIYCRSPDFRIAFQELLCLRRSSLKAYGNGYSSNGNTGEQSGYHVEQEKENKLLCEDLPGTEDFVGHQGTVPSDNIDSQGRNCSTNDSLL
- testProtocol: agonist-induced loss of surface beta2AR – cell-based, FAP fluorogen, flow cytometry, validation set, pilot screen (AID 504459);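 also: agonist-driven loss of surface beta2AR via internalization measured by FAP dye flow cytometry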
- conditionInfo: Am2.2-beta2AR cells, at 10 µM, stronger effect = higher value
For each entry below, report its response value.
One number for each entry, in %.

compound=COc1ccc2oc(=O)c(C(=O)Nc3ccccc3-c3ccccc3)cc2c1 experimentalreadout=response unitstext=% measuredresult=13.6
compound="CC(=O)NC(NC(=S)N1CCCCCC1)C(Cl)(Cl)Cl (configuration not stated)" experimentalreadout=response unitstext=% measuredresult=2.95
compound="COc1ccc(C2NC(C(=O)O)Cc3c2[nH]c2ccccc32)cc1CN1CCN(c2ccc(F)cc2)CC1 (configuration not stated)" experimentalreadout=response unitstext=% measuredresult=6.62
compound="CCOC(=O)C(NC(=O)CCC(=O)Nc1ccc(S(N)(=O)=O)cc1)C(O)c1ccccc1 (configuration not stated)" experimentalreadout=response unitstext=% measuredresult=-25.5

Field: response. Fill in for each record below.
1. NC(N)=NC(=O)Cc1c(Cl)cccc1Cl
2. COc1cc(OC)cc(C(C)=O)c1

1: -1.1; 2: -14.6

Quick batch: response for everything below.
1. C#C[C@]1(O)CC[C@H]2[C@@H]3CCC4=CC(=O)CC[C@@H]4[C@H]3CC[C@@]21CC
2. Cc1ccc(C(=O)NCCNC(=O)c2ccccc2)cc1
3. N=c1nc(N2CCCCC2)cc(N)n1O
4. Cc1ccccc1C(=O)NCC(=O)O
5. c1ccc(CNc2ncnc3nc[nH]c23)cc1
6. OC(C#CCN1CCCC1)(c1ccccc1)c1cccnc1 (configuration not stated)

-17.9
-20.1
-8.64
2.69
1.86
-14.6

====

- testProtocol: reduced mouse 2C T cell binding to pMHC/ICAM-1 vesicles – MLPCN validation set, flow cytometry, LFA-1/ICAM-1 modulator project, pilot screen (AID 2523)
- conditionInfo: 2C mouse CD8+ T cells, at 7 µM, stronger effect = lower value; measured here: CD8+/vesicle+ event percentage
Peptide text beside a SMILES is read from it.
Give double positive events for every item shown.
Give bare numbers, in %.

// solved cases for double positive events follow
molecule="O=C(c1cccnc1)N1N=C(C2CC2)CC1(O)C(F)(F)F (stereo not given)" measuredresult=60.4
molecule="CC(=O)NC(CC(C)C)C(=O)NC(Cc1ccccc1)C(N)=O (stereo not drawn) (Ac-Leu-Phe-NH2; configuration not given here)" measuredresult=60.5
molecule=CC1(C)O[C@@H]2C[C@H]3[C@@H]4C[C@H](F)C5=CC(=O)C=C[C@]5(C)[C@@]4(F)[C@@H](O)C[C@]3(C)[C@]2(C(=O)CO)O1 measuredresult=57.8

Batch request: double positive events per item, same order as input.
1. COc1ccc2c(=O)c(-c3cnn(-c4ccccc4)c3)c(C)oc2c1
2. COc1ccc(C2=CC(=O)C=CC2=O)cc1
3. Cc1ccc(S(=O)(=O)N[C@@H](Cc2ccccc2)C(=O)CCl)cc1
4. COc1ccccc1NC(=O)N1CCc2[nH]c3ccc(Cl)cc3c2C1
5. O=C(N/C(=C/C=C\c1ccccc1)C(=O)N1CCOCC1)c1ccc(Br)cc1
6. COc1ccc(CN2CCC(=O)NC2=O)cc1

1: 58.6; 2: 64.5; 3: 59.9; 4: 62.4; 5: 65.2; 6: 59.9

Query: double positive events; subject: COc1ccc2c(c1O)Cc1ccccc1C2=O
56.5

====

- measurementTarget: ATP-binding cassette sub-family B member 6 (Homo sapiens)
- testProtocol: blockers of ABCB6-driven porphyrin uptake – K562-ABCB6 cells, flow cytometry, validation set, pilot screen (AID 588550);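 also: 0% = DMSO wells and 100% = benzethonium chloride 70 µM positive control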
- conditionInfo: K562-ABCB6 porphyrin accumulation, 1 h, at 10 µM, stronger effect = higher value
Active and inactive are the calls of the source.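 The calls were made as follows: active = inhibition above the screen-wide mean plus 3 SD, about 51%; inactive = the rest.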
Would you kindly list inhibition for each of these compounds?

compound=Cc1ccc(Nc2ncccc2C(=O)O)cc1C experimentalreadout=inhibition measuredresult="15% (inactive)"
compound=CC1(C)Cc2nc3sc4c(=O)n(CC(N)=O)cnc4c3cc2CO1 experimentalreadout=inhibition measuredresult="14% (inactive)"
compound=COc1ccc(-c2cc(=Nc3ccc(C)cc3)c3ccccc3o2)cc1 experimentalreadout=inhibition measuredresult="5% (inactive)"
compound=O=C(CS(=O)(=O)c1ccccc1)c1ccc2c(c1)OCCO2 experimentalreadout=inhibition measuredresult="5% (inactive)"
compound=C#C[C@]1(O)CC[C@H]2[C@@H]3CCc4cc(OC)ccc4[C@H]3CC[C@@]21C experimentalreadout=inhibition measuredresult="5% (inactive)"

Below is a list of compounds. For each, state its recorded inhibition.
1. Cc1cc(C(=O)Nc2ccccc2C(=O)N2CCCCC2)ccc1[N+](=O)[O-]
2. CCOC(=O)c1cccc(P(C)(C)=O)c1
3. CCOC(=O)C1=C(C)NC(C)=C(C(=O)OC)C1c1cccc([N+](=O)[O-])c1 (stereo unspecified)
4. CC(=O)N[C@@H](CS)C(=O)O
5. COC(=O)c1sccc1NC(=O)Nc1ccccc1F

["8% (inactive)", "-7% (inactive)", "18% (inactive)", "19% (inactive)", "23% (inactive)"]

Which inhibition is reported with ATP-binding cassette sub-family B member 6 (Homo sapiens) for this entry: COCCOC(=O)C1=C(C)NC(C)=C(C(=O)OC(C)C)C1c1cccc([N+](=O)[O-])c1 (stereo unspecified) ?
-4% (inactive)
